Molecular target: full-length P. pyralis luciferase (Photinus pyralis, UniProt P08659, K549A/L550V/N119G/N50D/S548I)
Sequence (P08659 whole entry N50D/N119G/S548I/K549A/L550V, looked up): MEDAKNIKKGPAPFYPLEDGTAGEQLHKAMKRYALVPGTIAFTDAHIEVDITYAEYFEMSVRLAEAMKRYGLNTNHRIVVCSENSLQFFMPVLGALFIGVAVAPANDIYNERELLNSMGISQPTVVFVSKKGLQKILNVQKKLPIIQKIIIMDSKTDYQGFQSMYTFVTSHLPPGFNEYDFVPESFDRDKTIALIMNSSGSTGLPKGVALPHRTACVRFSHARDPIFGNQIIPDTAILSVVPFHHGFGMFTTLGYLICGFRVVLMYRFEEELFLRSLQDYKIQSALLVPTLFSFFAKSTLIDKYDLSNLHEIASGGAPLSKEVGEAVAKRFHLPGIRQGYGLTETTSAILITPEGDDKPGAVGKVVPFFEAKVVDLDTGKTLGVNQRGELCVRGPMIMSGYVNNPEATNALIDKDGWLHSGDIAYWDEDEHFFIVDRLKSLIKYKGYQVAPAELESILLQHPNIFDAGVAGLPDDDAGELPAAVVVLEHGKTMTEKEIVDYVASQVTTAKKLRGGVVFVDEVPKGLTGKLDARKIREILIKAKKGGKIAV
Format: cell-based
Settings: CC_NCI screening; normalized to on-plate 0.3% DMSO controls
Luciferase Assay Z-score (full-length luciferase counter-screen) for assorted compounds

Below, each entry is followed by its recorded Luciferase Assay Z-score (full-length luciferase counter-screen) result.
Compound: Clc1ccc(C(c2ccccc2Cl)C(Cl)Cl)cc1 (centres unmarked) [Mitotane]
Data value: -5.79

Compound: Cc1c[nH]c(-c2cnc(NCCNc3ccc(C#N)cn3)nc2-c2ccc(Cl)cc2Cl)n1 [CHIR 99021]
Data value: -3.82

I'd like to know its Luciferase Assay Z-score (full-length luciferase counter-screen). The compound in question is COc1cc([C@@H]2c3cc4c(cc3[C@@H](O[C@@H]3O[C@@H]5CO[C@@H](c6cccs6)O[C@H]5[C@H](O)[C@H]3O)[C@H]3COC(=O)[C@H]23)OCO4)cc(OC)c1O [Teniposide]
-0.92

What do you have for CC(C)C[C@H](NC(=O)[C@H](CCc1ccccc1)NC(=O)CN1CCOCC1)C(=O)N[C@@H](Cc1ccccc1)C(=O)N[C@@H](CC(C)C)C(=O)[C@@]1(C)CO1 [Carfilzomib] ?
-0.36

What do you have for CS(=O)(=O)N1CCN(Cc2cc3nc(-c4cccc5[nH]ncc45)nc(N4CCOCC4)c3s2)CC1 [GDC 0941] ?
-2.00
